B1: SMG5 (parent)
chain: TNPDLIIVCAQSSQSLWNRLSVLL

variants of: B1; assay: protein stability index of a GFP-peptide fusion (GPS, HEK-293T) (PSI 1-6); higher = more stable; details: c terminus: a fixed tail appended;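 further: lentivirally expressed fusions sorted by FACS into six bins by GFP to DsRed ratio, PSI derived from sequencing read proportions per bin multiplied by bin number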

- Mutation: "S12Y"
  protein stability index: 4.01
- Mutation: "N18H"
  protein stability index: 2.56
- Mutation: "I6A"
  protein stability index: 2.1
- Mutation: "L20I"
  protein stability index: 2.41
- Mutation: "S13P"
  protein stability index: 3.21
- Mutation: "L5G"
  protein stability index: 1.54
- Mutation: "I7A"
  protein stability index: 1.51
- Mutation: "Q11D"
  protein stability index: 3.08
- Mutation: "L24Y"
  protein stability index: 1.85
- Mutation: "P3K"
  protein stability index: 2.48
- Mutation: "L24R"
  protein stability index: 1.93
- Mutation: "S13M"
  protein stability index: 2
- Mutation: "L5V"
  protein stability index: 2.51
- Mutation: "L23K"
  protein stability index: 1.99
- Mutation: "I6H"
  protein stability index: 1.66
- Mutation: "V22Y"
  protein stability index: 1.91
- Mutation: "V8L"
  protein stability index: 3.74
- Mutation: "L5C"
  protein stability index: 3.93
- Mutation: "N18V"
  protein stability index: 1.91
- Mutation: "L5E"
  protein stability index: 2.95
- Mutation: "I6P"
  protein stability index: 2.57
- Mutation: "L16H"
  protein stability index: 3.7
- Mutation: "L5W"
  protein stability index: 1.4
- Mutation: "T1L"
  protein stability index: 2.36
- Mutation: "L23A"
  protein stability index: 1.84
- Mutation: "D4I"
  protein stability index: 2.79
- Mutation: "L16D"
  protein stability index: 3.33
- Mutation: "L16M"
  protein stability index: 3.23
- Mutation: "V8S"
  protein stability index: 1.7
- Mutation: "V22S"
  protein stability index: 2.36
- Mutation: "V22D"
  protein stability index: 2.03
- Mutation: "N2W"
  protein stability index: 3.06
- Mutation: "W17L"
  protein stability index: 3.96
- Mutation: "S13Y"
  protein stability index: 3.59
- Mutation: "S12D"
  protein stability index: 2.12
- Mutation: "Q11K"
  protein stability index: 2.89
- Mutation: "N2V"
  protein stability index: 2.06
- Mutation: "I6F"
  protein stability index: 2.5
- Mutation: "C9W"
  protein stability index: 3.33
- Mutation: "C9Y"
  protein stability index: 1.56
- Mutation: "T1D"
  protein stability index: 1.57
- Mutation: "I6D"
  protein stability index: 1.8
- Mutation: "V22K"
  protein stability index: 2.17
- Mutation: "W17D"
  protein stability index: 1.77
- Mutation: "R19P"
  protein stability index: 3.09
- Mutation: "N18I"
  protein stability index: 2.43
- Mutation: "L20V"
  protein stability index: 1.7
- Mutation: "S15D"
  protein stability index: 2.19
- Mutation: "S13D"
  protein stability index: 1.59
- Mutation: "L20D"
  protein stability index: 1.83
- Mutation: "L20T"
  protein stability index: 2.02
- Mutation: "Q11F"
  protein stability index: 1.67
- Mutation: "S13H"
  protein stability index: 1.53
- Mutation: "S15L"
  protein stability index: 2.45
- Mutation: "D4R"
  protein stability index: 1.94
- Mutation: "N18K"
  protein stability index: 2
- Mutation: "I6W"
  protein stability index: 2.5
- Mutation: "S12M"
  protein stability index: 2.99
- Mutation: "V22P"
  protein stability index: 2.62
- Mutation: "A10H"
  protein stability index: 2.68
- Mutation: "I7W"
  protein stability index: 4.05
- Mutation: "A10K"
  protein stability index: 1.59
- Mutation: "S21P"
  protein stability index: 2.6
- Mutation: "S12H"
  protein stability index: 3.49
- Mutation: "Q14R"
  protein stability index: 2.73
- Mutation: "N18P"
  protein stability index: 3.09
- Mutation: "D4P"
  protein stability index: 1.95
- Mutation: "W17K"
  protein stability index: 2.05
- Mutation: "L23V"
  protein stability index: 2.8
- Mutation: "C9L"
  protein stability index: 3.72
- Mutation: "D4F"
  protein stability index: 1.71
- Mutation: "D4V"
  protein stability index: 1.67
- Mutation: "L23S"
  protein stability index: 2.68
- Mutation: "C9F"
  protein stability index: 2.64
- Mutation: "N18R"
  protein stability index: 1.49
- Mutation: "P3T"
  protein stability index: 2.8
